Where these numbers come from: the supplement of paper PMC10126150

# Tested on: ATP;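 note: ATP exposure 15 min at 22 °C before imaging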
# experimental_protocol: switch fluorescence ratio, 500 uM ATP over buffer (Cy3 cluster intensity, sum of 5 cycles each) (fold (ratio)); higher = stronger signal-on switching upon ATP binding; sequences stand for … in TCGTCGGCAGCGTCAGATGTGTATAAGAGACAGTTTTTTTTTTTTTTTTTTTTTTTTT…TC
# condition_label: aptamer strand: ATP DNA aptamer (quencher-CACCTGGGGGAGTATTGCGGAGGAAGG + anchor), 100 nM annealed; ATP concentration: 500 uM
Exercise: for every item that follows, state its recorded switch fluorescence ratio.
The reply should be a number, written without any unit.

QUERY: Field request: switch fluorescence ratio | item: GGCATATCGT
RESULT: 0.949

QUERY: Field request: switch fluorescence ratio | item: CGGTCATTTT
RESULT: 0.998

QUERY: Field request: switch fluorescence ratio | item: ATATGCATAG
RESULT: 1.05

QUERY: Field request: switch fluorescence ratio | item: TAAGTGTGTG
RESULT: 0.975

QUERY: Field request: switch fluorescence ratio | item: AAGGCCGCGG
RESULT: 0.997

QUERY: Field request: switch fluorescence ratio | item: TCGCGGAATT
RESULT: 1.01

QUERY: Field request: switch fluorescence ratio | item: TTTTTACAGT
RESULT: 1.02

QUERY: Field request: switch fluorescence ratio | item: GGTGTAATGG
RESULT: 1.04

QUERY: Field request: switch fluorescence ratio | item: GAATGGGTTA
RESULT: 0.965

QUERY: Field request: switch fluorescence ratio | item: TTTGTGGGC
RESULT: 0.981

QUERY: Field request: switch fluorescence ratio | item: GTTTCACGGT
RESULT: 1

QUERY: Field request: switch fluorescence ratio | item: GTCTATAATT
RESULT: 0.988

QUERY: Field request: switch fluorescence ratio | item: GTGATTGATC
RESULT: 1.04

QUERY: Field request: switch fluorescence ratio | item: TACAGGGGTC
RESULT: 1.06

QUERY: Field request: switch fluorescence ratio | item: TACCCTTGGG
RESULT: 0.994

QUERY: Field request: switch fluorescence ratio | item: GAGAATCGTC
RESULT: 1.05

QUERY: Field request: switch fluorescence ratio | item: GAAAAAAGCG
RESULT: 1.01

QUERY: Field request: switch fluorescence ratio | item: TTAAGGATAC
RESULT: 1.15

QUERY: Field request: switch fluorescence ratio | item: AACAGAAAGG
RESULT: 0.982

QUERY: Field request: switch fluorescence ratio | item: TTTTTCCGGT
RESULT: 1.07

QUERY: Field request: switch fluorescence ratio | item: CGGATTTAAG
RESULT: 0.998

====

# Tested on: ATP;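 note: ATP exposure 15 min at 22 °C before imaging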
# experimental_protocol: switch fluorescence ratio, 500 uM ATP over buffer (Cy3 cluster intensity, sum of 5 cycles each) (fold (ratio)); higher = stronger signal-on switching upon ATP binding; sequences stand for … in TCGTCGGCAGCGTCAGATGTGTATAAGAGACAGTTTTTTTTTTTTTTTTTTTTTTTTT…TC
# condition_label: aptamer strand: ATP DNA aptamer (quencher-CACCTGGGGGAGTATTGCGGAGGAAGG + anchor), 100 nM annealed; ATP concentration: 500 uM
Assign Criterion met to entries whose switch fluorescence ratio meets or exceeds 1; assign Criterion not met to the rest.

QUERY: Could you please find out whether AAAGTTTGCG has switch fluorescence ratio that meets 1 or exceeds it?
RESULT: Criterion met

QUERY: Could you please find out whether CAGTTGTAAA has switch fluorescence ratio that meets 1 or exceeds it?
RESULT: Criterion not met

QUERY: Could you please find out whether TCAAGGCACA has switch fluorescence ratio that meets 1 or exceeds it?
RESULT: Criterion met

QUERY: Could you please find out whether AAGCAGGTGG has switch fluorescence ratio that meets 1 or exceeds it?
RESULT: Criterion met

QUERY: Could you please find out whether ACCCTGGGGT has switch fluorescence ratio that meets 1 or exceeds it?
RESULT: Criterion met

QUERY: Could you please find out whether CGTCCGGTG has switch fluorescence ratio that meets 1 or exceeds it?
RESULT: Criterion met

QUERY: Could you please find out whether TCCACCGTCG has switch fluorescence ratio that meets 1 or exceeds it?
RESULT: Criterion met

QUERY: Could you please find out whether AAATAGGGGG has switch fluorescence ratio that meets 1 or exceeds it?
RESULT: Criterion not met

QUERY: Could you please find out whether TTGTATTAGG has switch fluorescence ratio that meets 1 or exceeds it?
RESULT: Criterion not met
